The origin of these recorded values is patent US6093838A.

# Test Target: RXRβ (Mus musculus, UniProt P28704)
# Sequence (P28704 whole entry): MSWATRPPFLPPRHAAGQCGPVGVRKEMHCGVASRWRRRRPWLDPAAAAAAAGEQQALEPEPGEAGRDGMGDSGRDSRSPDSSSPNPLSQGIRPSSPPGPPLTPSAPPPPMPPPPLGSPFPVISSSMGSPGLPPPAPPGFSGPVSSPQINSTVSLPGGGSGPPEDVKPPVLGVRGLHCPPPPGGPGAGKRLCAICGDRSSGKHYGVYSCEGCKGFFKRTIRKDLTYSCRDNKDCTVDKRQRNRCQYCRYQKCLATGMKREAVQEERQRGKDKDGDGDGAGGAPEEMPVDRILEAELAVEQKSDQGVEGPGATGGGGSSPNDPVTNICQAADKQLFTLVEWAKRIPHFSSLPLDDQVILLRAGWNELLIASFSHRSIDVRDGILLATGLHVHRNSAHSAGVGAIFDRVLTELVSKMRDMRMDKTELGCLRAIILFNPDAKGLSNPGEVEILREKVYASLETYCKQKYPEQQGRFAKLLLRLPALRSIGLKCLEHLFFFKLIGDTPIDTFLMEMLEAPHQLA
# Assay Protocol: holoreceptor transactivation assay, RXRβ
# Particulars: holoreceptor transactivation, RXRβ; read-out: RXR Trans. EC50 β
Entries and their pEC50
Remember, pEC50 is on a log scale: it is -log10 of the molar concentration.

Exercise: Query pEC50 on RXRβ (Mus musculus, UniProt P28704) for `CCN(c1ccc(C(=O)O)cc1)c1cc(C(C)C)c2c(c1)C(C)(C)CO2`
Solution: 6.00

Others:
Exercise: Query pEC50 on RXRβ (Mus musculus, UniProt P28704) for `CCc1cc(N(CC)c2ccc(C(=O)O)cc2)cc2c1OCC2(C)C`
Solution: 6.10

Exercise: And what about the compound `CC(C)c1cc(N(c2ccc(C(=O)O)cc2)C(C)C)cc2c1OCC2(C)C` ?
Solution: 7.24

====

# Test Target: RXRγ (Mus musculus)
# Construct: expressed in transfected cells
# Sequence (P28705 whole entry): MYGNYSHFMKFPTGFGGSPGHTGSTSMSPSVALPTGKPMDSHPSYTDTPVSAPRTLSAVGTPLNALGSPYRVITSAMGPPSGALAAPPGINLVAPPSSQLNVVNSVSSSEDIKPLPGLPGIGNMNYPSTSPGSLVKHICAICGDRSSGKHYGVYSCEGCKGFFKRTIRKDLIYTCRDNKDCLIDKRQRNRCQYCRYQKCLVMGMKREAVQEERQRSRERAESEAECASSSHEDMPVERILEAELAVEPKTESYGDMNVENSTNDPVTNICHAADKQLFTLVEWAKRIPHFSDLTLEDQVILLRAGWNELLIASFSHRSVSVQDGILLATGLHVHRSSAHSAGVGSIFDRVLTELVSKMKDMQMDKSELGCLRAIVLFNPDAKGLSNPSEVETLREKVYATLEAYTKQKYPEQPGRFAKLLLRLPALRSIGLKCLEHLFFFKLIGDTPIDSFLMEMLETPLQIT
# Assay Protocol: holoreceptor transactivation assay, RXRγ
# Assay type: cell-based
# Particulars: relative to 10^-6 M cyclopropyl penta-2,4-dienoic acid reference (RXRs); read-out: % efficacy (RXRγ transactivation)
Metric Name: Emax (%)
Report as a plain number; the unit % is understood.

Look over these answered cases.
Exercise: Query Emax on RXRγ (Mus musculus) for `CCN(c1ccc(C(=O)O)cc1)c1cc(C(C)C)c2c(c1)C(C)(C)CO2`
Solution: 125

Exercise: And what about the compound `Cc1c(N(c2ccc(C(=O)O)cc2)C(C)C)cc2c(c1C(C)(C)C)OCC2(C)C` ?
Solution: 97

Exercise: And what about the compound `CCN(c1ccc(C(=O)O)cc1)c1ccc2c(c1)C(C)(C)OC2(C)C` ?
Solution: 140

Exercise: And what about the compound `CCc1cc(N(CC)c2ccc(C(=O)O)cc2)cc2c1OCC2(C)C` ?
Solution: 130

Next up:
Exercise: Query Emax on RXRγ (Mus musculus) for `CC(C)N(c1ccc(C(=O)O)cc1)c1cc(C(C)(C)C)c2c(c1)C(C)(C)CO2`
Solution: 48

====

# Test Target: RXRβ
# Assay Protocol: ligand binding assay, RXRβ
# Particulars: read-out: RXR Bind Ki β
Metric Name: Ki (nM)
Report as a plain number; the unit nM is understood.

Exercise: Query Ki on RXRβ for `CC(C)N(c1ccc(C(=O)O)cc1)c1ccc2c(c1)C(C)(C)OC2(C)C`
Solution: 2700

Next up:
Exercise: Query Ki on RXRβ for `Cc1c(N(c2ccc(C(=O)O)cc2)C(C)C)cc2c(c1C(C)(C)C)OCC2(C)C`
Solution: 178

====

# Test Target: RXRα (Homo sapiens)
# Sequence (P19793 whole entry): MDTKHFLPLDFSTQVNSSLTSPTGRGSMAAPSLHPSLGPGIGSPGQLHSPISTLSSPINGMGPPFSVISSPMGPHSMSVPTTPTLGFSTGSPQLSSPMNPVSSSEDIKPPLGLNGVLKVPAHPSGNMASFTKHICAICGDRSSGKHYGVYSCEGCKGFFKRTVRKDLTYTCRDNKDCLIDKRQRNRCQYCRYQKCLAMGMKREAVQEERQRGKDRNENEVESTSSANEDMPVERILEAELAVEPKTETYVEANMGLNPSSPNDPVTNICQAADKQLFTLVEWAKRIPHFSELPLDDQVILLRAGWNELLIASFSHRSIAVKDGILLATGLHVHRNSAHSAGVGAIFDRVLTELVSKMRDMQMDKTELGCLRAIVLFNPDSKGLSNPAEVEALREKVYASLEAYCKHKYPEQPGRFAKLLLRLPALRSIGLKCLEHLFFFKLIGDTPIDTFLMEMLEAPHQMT
# Assay Protocol: holoreceptor transactivation assay, RXRα
# Particulars: holoreceptor transactivation, RXRα; read-out: RXR Trans. EC50 α
Metric Name: EC50

Exercise: May I ask what EC50 has been recorded for `CC(C)c1cc(N(C)c2ccc(C(=O)O)cc2)cc2c1OCC2(C)C` ?
Solution: 1000 nM

Exercise: And what about the compound `CCN(c1ccc(C(=O)O)cc1)c1cc2c(c(C(C)C)c1C)OCC2(C)C` ?
Solution: 11 nM

Exercise: And what about the compound `CCc1cc(N(CC)c2ccc(C(=O)O)cc2)cc2c1OCC2(C)C` ?
Solution: 139 nM

Others:
Exercise: May I ask what EC50 has been recorded for `Cc1c(N(c2ccc(C(=O)O)cc2)C(C)C)cc2c(c1C(C)(C)C)OCC2(C)C` ?
Solution: 10 nM

Exercise: And what about the compound `CCN(c1ccc(C(=O)O)cc1)c1cc(C(C)C)c2c(c1)C(C)(C)CO2` ?
Solution: 74 nM
